Biological target: recombinant human AKR1C3 (Homo sapiens)
Construct: His6 (hexahistidine) (C); made in house; host or cells: E. coli BL21(DE3)
Sequence (P42330 whole entry): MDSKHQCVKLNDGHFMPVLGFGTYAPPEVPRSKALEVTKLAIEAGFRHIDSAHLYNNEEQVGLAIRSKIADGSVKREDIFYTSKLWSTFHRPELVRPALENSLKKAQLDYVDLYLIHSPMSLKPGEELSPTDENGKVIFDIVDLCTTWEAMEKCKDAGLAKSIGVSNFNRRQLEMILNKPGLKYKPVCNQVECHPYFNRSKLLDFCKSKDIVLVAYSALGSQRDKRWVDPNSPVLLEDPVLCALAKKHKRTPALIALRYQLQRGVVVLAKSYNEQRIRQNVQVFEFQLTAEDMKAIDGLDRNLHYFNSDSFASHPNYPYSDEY
Experiment: Kinetics assay: metabolism of prodrugs by recombinant human AKR1C3
Type: biochemical
Conditions: NADPH, pH 7.4, 37° C.
Protocol: E. coli BL21(DE3) cells expressing the pET22b-AKR1C3 construct with a C-terminal hexahistidine (His6) tag and constitutive promoter was generated. Colonies of these transformed E. coli cells were grown in LB agar medium containing 100 μg/mL of ampicillin. […] Protein was monitored by absorbance at 280 nm, and purity of the fractions (1 mL) was assessed by SDS-PAGE. […] Kinetic parameters of compounds of the invention were determined in a 96-well plate format. […]
Measurement Kind: Km (µM)
Please respond with the number in µM and leave the unit unwritten.

Compound: CS(=O)(=O)OCCN(CCBr)c1c(C(=O)NCCO)cc([N+](=O)[O-])cc1[N+](=O)[O-] [PR-104A, reference compound]
Km / µM: 72.9

QUERY: Kindly indicate its recorded Km. Item: CN1CCN(C(=O)c2cc([N+](=O)[O-])ccc2N(CCBr)CCBr)CC1 [SN34118, reference compound]
RESULT: 9

QUERY: Kindly indicate its recorded Km. Item: CS(=O)(=O)OCCN(CCBr)c1c(C(=O)N2CCN(c3ccccc3)CC2)cc([N+](=O)[O-])cc1[N+](=O)[O-] [SN35028, reference compound]
RESULT: 7.3

QUERY: Kindly indicate its recorded Km. Item: CN1CCN(S(=O)(=O)c2cc([N+](=O)[O-])ccc2N(CCBr)CCOS(C)(=O)=O)CC1 [Compound 602]
RESULT: 33.1

QUERY: Kindly indicate its recorded Km. Item: CN1CCN(S(=O)(=O)c2cc([N+](=O)[O-])ccc2N(CCOS(C)(=O)=O)CCOS(C)(=O)=O)CC1 [Compound 641]
RESULT: 21.5

QUERY: Kindly indicate its recorded Km. Item: O=[N+]([O-])c1ccc(N(CCBr)CCBr)c(S(=O)(=O)N2CCN(CC(O)CO)CC2)c1 (stereo not drawn) [Compound 566]
RESULT: 32.2

QUERY: Kindly indicate its recorded Km. Item: CS(=O)(=O)OCCN(CCBr)c1ccc([N+](=O)[O-])cc1S(=O)(=O)N1CCN(CC(O)CO)CC1 (stereo not drawn) [Compound 605]
RESULT: 17.1

QUERY: Kindly indicate its recorded Km. Item: N#Cc1cccc2c1CCN(C(=O)c1cc([N+](=O)[O-])cc([N+](=O)[O-])c1N(CCBr)CCBr)C2 [SN34951, reference compound]
RESULT: 8.5

QUERY: Kindly indicate its recorded Km. Item: O=C(c1cc([N+](=O)[O-])cc([N+](=O)[O-])c1N(CCBr)CCBr)N1CCc2ccccc2C1 [SN34947, reference compound]
RESULT: 7.8
